Give measured pIC50 for each item. Keep answers brief.
tgt: UniProt P37288
Sequence (P37288 whole entry): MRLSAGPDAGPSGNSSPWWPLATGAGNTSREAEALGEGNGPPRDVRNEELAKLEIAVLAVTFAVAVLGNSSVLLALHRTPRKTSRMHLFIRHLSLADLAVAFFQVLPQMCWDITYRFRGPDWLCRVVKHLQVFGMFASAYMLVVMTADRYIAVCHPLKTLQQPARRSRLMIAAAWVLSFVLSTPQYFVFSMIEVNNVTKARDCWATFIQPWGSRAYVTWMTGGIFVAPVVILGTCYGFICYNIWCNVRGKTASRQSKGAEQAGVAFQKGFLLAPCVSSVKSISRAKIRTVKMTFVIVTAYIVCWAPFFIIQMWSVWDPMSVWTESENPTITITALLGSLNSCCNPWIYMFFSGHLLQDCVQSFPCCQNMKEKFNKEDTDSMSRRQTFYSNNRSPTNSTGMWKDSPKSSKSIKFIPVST
testSummary: cell-based
pIC50 field: float, defined as -log10 of concentration (mol/L).

# pIC50 lookup, item "O=C(C1CCN(c2ncccc2F)CC1)N(CC1CC1)c1ccc(Cl)cc1"
7.82

# pIC50 lookup, item "Cc1ccc(N2CCC(C(=O)N(CC3CC3)c3ccc(Cl)cc3)CC2)nc1"
7.70

# pIC50 lookup, item "N#CC1(c2ccccc2)CCN(C(=O)N2CCCCc3cc(Cl)ccc32)CC1"
6.45

# pIC50 lookup, item "O=C(C1CCN(c2cc(C(F)(F)F)ccn2)CC1)N(CC1CC1)c1ccc(Cl)cc1"
7.43

# pIC50 lookup, item "O=C(C1CCN(c2ccc(F)cn2)CC1)N(CC1CC1)c1ccc(Cl)cc1"
7.62

# pIC50 lookup, item "O=C(C1CCN(c2ccc(Cl)cn2)CC1)N(CC1CC1)c1ccc(Cl)cc1"
7.40
